Where these numbers come from: patent US20140243322A1

Tested on: Myc mRNA
procedure summary: Inhibition of Myc expression (Myc mRNA) in MV4-11 cells
Assay type: cell-based
measurement parameters: Homo sapiens, 4 hours of treatment, read-out: EC50 range, Myc mRNA normalized to GAPDH mRNA
pEC50: −log10 of the molar value.
// reported pEC50 for each item listed

molecule	pEC50
CCNC(=O)C[C@@H]1N=C(c2ccc(Cl)cc2)c2cc(OCCOCCOCCOCCOCCOCCOCCOCCOCCNC(=O)C[C@@H]3N=C(c4ccc(Cl)cc4)c4cc(OC)ccc4-n4c(C)nnc43)ccc2-n2c(C)nnc21 [BRD-B-20]	7.52 to 10.00
CCNC(=O)C[C@@H]1N=C(c2ccc(Cl)cc2)c2cc(OCCOCCOCCOCCOCCOCCOCCNC(=O)C[C@@H]3N=C(c4ccc(Cl)cc4)c4cc(OC)ccc4-n4c(C)nnc43)ccc2-n2c(C)nnc21 [BRD-B-14]	7.52 to 10.00
CCNC(=O)C[C@@H]1N=C(c2ccc(Cl)cc2)c2cc(OCCOCCOCCOCCOCCOCCOCCOCCNC(=O)C[C@@H]3N=C(c4ccc(Cl)cc4)c4cc(OC)ccc4-n4c(C)nnc43)ccc2-n2c(C)nnc21 [BRD-B-15]	4.52 to 7.00
CCNC(=O)C[C@@H]1N=C(c2ccc(Cl)cc2)c2cc(OCCOCCOCCOCCOCCNC(=O)C[C@@H]3N=C(c4ccc(Cl)cc4)c4cc(OC)ccc4-n4c(C)nnc43)ccc2-n2c(C)nnc21 [BRD-B-12]	7.00 to 7.52
COc1ccc2c(c1)C(c1ccc(Cl)cc1)=N[C@@H](CC(=O)NCCOCCOCCOCCOCCNC(=O)C[C@@H]1N=C(c3ccc(Cl)cc3)c3cc(OC)ccc3-n3c(C)nnc31)c1nnc(C)n1-2 [BRD-B-16]	7.00 to 7.52

###

// reported EC50 for each item listed
Tested on: Myc mRNA
procedure summary: Inhibition of Myc expression (Myc mRNA) in MV4-11 cells
Type: cell-based
measurement parameters: Homo sapiens, 4 hours of treatment, read-out: EC50 range, Myc mRNA normalized to GAPDH mRNA

smiles record	EC50
COc1ccc2c(c1)C(c1ccc(Cl)cc1)=N[C@@H](CC(=O)NCC(=O)NCCNC(=O)CNC(=O)C[C@@H]1N=C(c3ccc(Cl)cc3)c3cc(OC)ccc3-n3c(C)nnc31)c1nnc(C)n1-2	100 to 30000 nM
COc1ccc2c(c1)C(c1ccc(Cl)cc1)=N[C@@H](CC(=O)NCCOCCOCCOCCOCCOCCOCCNC(=O)C[C@@H]1N=C(c3ccc(Cl)cc3)c3cc(OC)ccc3-n3c(C)nnc31)c1nnc(C)n1-2	30 to 100 nM
COc1ccc2c(c1)C(c1ccc(Cl)cc1)=N[C@@H](CC(=O)NCCNC(=O)CNC(=O)CNC(=O)C[C@@H]1N=C(c3ccc(Cl)cc3)c3cc(OC)ccc3-n3c(C)nnc31)c1nnc(C)n1-2	100 to 30000 nM
COc1ccc2c(c1)C(c1ccc(Cl)cc1)=N[C@@H](CC(=O)NCCNC(=O)CNC(=O)C[C@@H]1N=C(c3ccc(Cl)cc3)c3cc(OC)ccc3-n3c(C)nnc31)c1nnc(C)n1-2	100 to 30000 nM
CCNC(=O)C[C@@H]1N=C(c2ccc(Cl)cc2)c2cc(OCCOCCOCCOCCNC(=O)C[C@@H]3N=C(c4ccc(Cl)cc4)c4cc(OC)ccc4-n4c(C)nnc43)ccc2-n2c(C)nnc21	30 to 100 nM
CCNC(=O)C[C@@H]1N=C(c2ccc(Cl)cc2)c2cc(OCCOCCOCCOCCOCCOCCOCCOCCOCCOCCNC(=O)C[C@@H]3N=C(c4ccc(Cl)cc4)c4cc(OC)ccc4-n4c(C)nnc43)ccc2-n2c(C)nnc21	100 to 30000 nM
COc1ccc2c(c1)C(c1ccc(Cl)cc1)=N[C@@H](CC(=O)NCCOCCOCCOCCOCCOCCNC(=O)C[C@@H]1N=C(c3ccc(Cl)cc3)c3cc(OC)ccc3-n3c(C)nnc31)c1nnc(C)n1-2	100 to 30000 nM
COc1ccc2c(c1)C(c1ccc(Cl)cc1)=N[C@@H](CC(=O)NCCNC(=O)NCCNC(=O)C[C@@H]1N=C(c3ccc(Cl)cc3)c3cc(OC)ccc3-n3c(C)nnc31)c1nnc(C)n1-2	100 to 30000 nM
CCNC(=O)C[C@@H]1N=C(c2ccc(Cl)cc2)c2cc(OCCOCCOCCOCCOCCOCCNC(=O)C[C@@H]3N=C(c4ccc(Cl)cc4)c4cc(OC)ccc4-n4c(C)nnc43)ccc2-n2c(C)nnc21	100 to 30000 nM
COc1ccc2c(c1)C(c1ccc(Cl)cc1)=N[C@@H](CC(=O)NCCOCCOCCOCCOCCOCCOCCOCCNC(=O)C[C@@H]1N=C(c3ccc(Cl)cc3)c3cc(OC)ccc3-n3c(C)nnc31)c1nnc(C)n1-2	100 to 30000 nM
Cc1ccc(-c2c(C)noc2C)cc1S(=O)(=O)NCCOCCOCCNS(=O)(=O)c1cc(-c2c(C)noc2C)ccc1C	100 to 30000 nM
